# Measurement protocol: Toxicity in male Balb/c mouse assessed as mortality at 80 mg/kg, ip measured after 7 days relative to control
# Type: organism-based
# Condition notes: in vivo, time 7 day
Reported property: mortality at 168 h (%)
Give bare numbers, in %.

Task: Name the reported mortality at 168 h value associated with the substance H-RRWFRRWRRWFR-NH2
Result: 25

###

# Measurement protocol: Hemolytic activity in mouse red blood cells assessed as hemolysis incubated for 1 hrs by absorbance based assay
# Type: toxicity, cell-based
# Condition notes: erythrocyte
I'd be grateful if you could share measured HC10 for these entries.

substance=H-RRWFRRWIRWFI-NH2 readout_value="2.39 µM"
substance=H-RRWFRRWERWFE-NH2 readout_value="> 256 µM"
substance=H-RRWFRRWTRWFT-NH2 readout_value="> 256 µM"
substance=H-RRWFRRWKRWFK-NH2 readout_value="> 256 µM"
substance=H-RRWFRRWGRWFG-NH2 readout_value="> 256 µM"

Kindly consider the entry below.
Task: Name the reported HC10 value associated with the substance H-RRWFRRWFRRWF-NH2
Result: 16.44 µM

###

# Measurement protocol: Toxicity in male Balb/c mouse assessed as mortality at 100.8 mg/kg, ip measured after 7 days relative to control
# Format: organism-based
# Condition notes: in vivo, time 7 day
Reported property: mortality at 168 h (%)
Numbers only, in %.

Task: Name the reported mortality at 168 h value associated with the substance H-RRWFRRWRRWFR-NH2
Result: 75

###

# Test system: Enterococcus faecalis
# Measurement protocol: Antimicrobial activity against Enterococcus faecalis ATCC 29212 assessed as inhibition of visible bacterial growth incubated for 18 hrs by broth-dilution method
# Assay type: functional
I'd be grateful if you could share measured MIC for these entries.
Numbers only, in µM.

Study these solved cases before continuing.
substance=H-RRWFRRWRRWFR-NH2 tgt="Enterococcus faecalis" reported_property=MIC readout_value=8
substance=H-RRWFRRWLRWFL-NH2 tgt="Enterococcus faecalis" reported_property=MIC readout_value=32

Okay, here is my list. What is MIC for each of these?
1. H-RRWFRRWWRWFW-NH2
2. H-RRWFRRWFRRWF-NH2
3. H-RRWFRRWTRWFT-NH2
4. H-RRWFRRWIRWFI-NH2
5. H-RRWFRRWKRWFK-NH2

Result:
1. 32
2. 16
3. 16
4. 16
5. 32

Okay, here is my list. What is MIC for each of these?
1. H-RRWFRRWERWFE-NH2
2. H-RRWFRRWFRWFF-NH2
3. H-RRWFRRWGRWFG-NH2

Result:
[128, 32, 32]

###

# Measurement protocol: Toxicity in male Balb/c mouse assessed as lethal dose administered intraperitoneally for 7 days
# Condition notes: in vivo, route ip, time 7 day
Reported property: LD50 at 168 h
Remember to quote the unit after the number.

Task: Name the reported LD50 at 168 h value associated with the substance H-RRWFRRWRRWFR-NH2
Result: 89.9 mg/kg

###

# Test system: Acinetobacter baumannii
# Measurement protocol: Antimicrobial activity against Acinetobacter baumannii ATCC 19606 assessed as inhibition of visible bacterial growth incubated for 18 hrs by broth microdilution method
# Format: functional
Reported property: MIC (µM)
Answers are plain numbers, in µM.

substance=H-RRWFRRWKRWFK-NH2 readout_value=16
substance=H-RRWFRRWRRWFR-NH2 readout_value=8
substance=H-RRWFRRWGRWFG-NH2 readout_value=32
substance=H-RRWFRRWWRWFW-NH2 readout_value=32
substance=H-RRWFRRWLRWFL-NH2 readout_value=32

Okay, here is my list. What is MIC for each of these?
1. H-RRWFRRWTRWFT-NH2
2. H-RRWFRRWIRWFI-NH2

Result:
1. 8
2. 16

Okay, here is my list. What is MIC for each of these?
1. H-RRWFRRWERWFE-NH2
2. H-RRWFRRWFRWFF-NH2
3. H-RRWFRRWFRRWF-NH2

Result:
1. 32
2. 32
3. 16

###

# Measurement protocol: Hemolytic activity in mouse red blood cells assessed as hemolysis at 256 uM incubated for 1 hrs by absorbance based assay relative to control
# Type: toxicity, cell-based, Erythrocyte
# Condition notes: read-out: Activity
Reported property: hemolysis at 1 h, 256 µM

Task: Name the reported hemolysis at 1 h, 256 µM value associated with the substance H-RRWFRRWRRWFR-NH2
Result: < 10%

Every entry's value here was drawn from ChEMBL document CHEMBL6153094.
